Recorded Composite Z score, PDE4A5 for the following compounds
molecular target: PDE4A5 (Rattus norvegicus, UniProt P54748); construct: targets used in the assays are full-length proteins (as opposed to simply the catalytic domain); expressed in transfected cells; host or cells: Schizosaccharomyces pombe, PDE gene integrated in place of cgs2; assay: 5FOA growth assay in fission yeast strain expressing PDE4A5; format: cell-based; details: high throughput 5FOA growth screen
Sequence (P54748 whole entry, the tested form may be a part): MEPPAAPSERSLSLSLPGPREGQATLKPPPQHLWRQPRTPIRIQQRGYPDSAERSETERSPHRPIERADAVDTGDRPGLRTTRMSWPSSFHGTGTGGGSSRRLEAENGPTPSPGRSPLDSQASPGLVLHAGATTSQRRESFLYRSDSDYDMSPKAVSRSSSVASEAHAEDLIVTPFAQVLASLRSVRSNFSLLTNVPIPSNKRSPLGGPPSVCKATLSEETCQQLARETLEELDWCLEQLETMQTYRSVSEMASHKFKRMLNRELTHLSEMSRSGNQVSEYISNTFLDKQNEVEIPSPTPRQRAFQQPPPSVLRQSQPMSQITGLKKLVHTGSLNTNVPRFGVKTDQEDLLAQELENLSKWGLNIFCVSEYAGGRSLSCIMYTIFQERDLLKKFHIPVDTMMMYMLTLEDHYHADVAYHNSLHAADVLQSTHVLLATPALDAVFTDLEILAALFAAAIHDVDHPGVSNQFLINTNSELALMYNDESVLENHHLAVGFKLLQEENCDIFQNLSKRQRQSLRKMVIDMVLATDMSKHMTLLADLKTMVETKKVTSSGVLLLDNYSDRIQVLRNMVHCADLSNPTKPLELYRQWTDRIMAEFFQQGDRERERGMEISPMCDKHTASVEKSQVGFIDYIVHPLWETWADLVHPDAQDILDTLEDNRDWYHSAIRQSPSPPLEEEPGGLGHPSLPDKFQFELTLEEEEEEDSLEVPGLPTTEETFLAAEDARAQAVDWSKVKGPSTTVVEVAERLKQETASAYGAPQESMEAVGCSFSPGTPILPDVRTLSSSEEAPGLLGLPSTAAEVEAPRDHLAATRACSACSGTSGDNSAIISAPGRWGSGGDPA
measured_property: Composite Z score, PDE4A5

>>> measured_result("Cc1nc(N2CCC(C)CC2)c2c(C)c(C(=O)N3CCN(c4ccc(F)cc4)CC3)sc2n1")
1.3723
>>> measured_result("COc1ccc(NC(=O)c2sc3nc(C)nc(N(C)c4ccc(C(C)C)cc4)c3c2C)c(OC)c1")
1.1627
>>> measured_result("O=C(/C=C/c1ccccc1)Nc1ncnc2sc3c(c12)CCC3")
"−4.329"
>>> measured_result("Cc1nc(NCCc2ccccc2)c2c3c(sc2n1)CCCC3")
"−4.881"
>>> measured_result("CCCCN(CC)C(=O)c1sc2ncnc(N3CCN(c4ccc(OC)cc4)CC3)c2c1C")
"−10.26"

====

Reported Composite Z score, PDE7A values for a set of molecules
molecular target: PDE7A (Homo sapiens); assay: 5FOA growth assay in fission yeast strain expressing PDE7A; type: cell-based; design: targets used in the assays are full-length proteins (as opposed to simply the catalytic domain); expressed in transfected cells; host or cells: Schizosaccharomyces pombe, PDE gene integrated in place of cgs2; conditions: high throughput 5FOA growth screen
Sequence (Q13946 whole entry, the tested form may be a part): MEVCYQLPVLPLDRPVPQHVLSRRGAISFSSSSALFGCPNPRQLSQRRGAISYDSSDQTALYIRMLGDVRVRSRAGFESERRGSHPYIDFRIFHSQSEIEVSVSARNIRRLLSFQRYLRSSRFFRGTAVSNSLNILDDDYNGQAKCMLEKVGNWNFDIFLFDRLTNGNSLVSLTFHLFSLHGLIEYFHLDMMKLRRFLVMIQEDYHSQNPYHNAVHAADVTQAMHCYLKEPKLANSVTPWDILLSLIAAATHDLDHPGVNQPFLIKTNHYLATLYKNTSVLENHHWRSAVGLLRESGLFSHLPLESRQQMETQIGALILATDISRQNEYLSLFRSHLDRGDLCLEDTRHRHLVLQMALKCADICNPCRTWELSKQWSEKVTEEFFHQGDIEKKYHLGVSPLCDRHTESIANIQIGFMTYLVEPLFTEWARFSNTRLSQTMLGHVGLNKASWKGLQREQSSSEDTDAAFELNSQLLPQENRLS
measured_property: Composite Z score, PDE7A

>>> measured_result("CC1CC(=O)N(c2ncnc3sc4c(c23)CCCC4)N1 (centres unmarked)")
"−0.737"
>>> measured_result("Cc1nc(NCCc2ccccc2)c2c3c(sc2n1)CCCC3")
0.03
>>> measured_result("CCOC(CNc1nc(C)nc2sc3c(c12)CCCC3)OCC")
"−0.593"
>>> measured_result("Cc1sc2ncnc(NCC(=O)O)c2c1C")
"−1.774"
>>> measured_result("O=C(O)CCNc1ncnc2sc3c(c12)CCCC3")
1.8846
>>> measured_result("CCN(CC)c1nc(C)nc2sc(C(=O)N3CCCCCC3)c(C)c12")
"−1.037"
>>> measured_result("CCC(C)NC(=O)c1sc2nc(C)nc(N(C)c3ccc(C(C)C)cc3)c2c1C (centres unmarked)")
"−1.377"
>>> measured_result("O=C(Nc1ncnc2sc3c(c12)CCCCC3)c1ccc(F)cc1")
30.877
>>> measured_result("CCN(CC)c1ncnc2sc3c(c12)CCCC3")
177.31
>>> measured_result("Cc1c(C(=O)NCCC(C)C)sc2ncnc(N3CCOCC3)c12")
"−0.598"
>>> measured_result("Cc1sc2ncnc(N3CCN(CCO)CC3)c2c1C")
0.0079
>>> measured_result("Cc1cc(C)c(C)c(S(=O)(=O)N2CCN(c3ncnc4sc5c(c34)CCCC5)CC2)c1C")
"−0.684"
>>> measured_result("CCC1CCc2c(sc3ncnc(N4CCOCC4)c23)C1 (centres unmarked)")
"−0.794"
>>> measured_result("c1ccc(CN2CCN(c3ncnc4sc5c(c34)CCCCC5)CC2)cc1")
0.7527
>>> measured_result("COc1cc(OC)c(NC(=O)c2sc3ncnc(N4CCCCC4C)c3c2C)cc1Cl (centres unmarked)")
0.6002
>>> measured_result("c1csc(CCNc2ncnc3sc4c(c23)CCC4)c1")
"−0.398"
>>> measured_result("CCOC(=O)c1sc2nc(C)nc(N3CCC(C)CC3)c2c1C")
"−0.759"
>>> measured_result("Cc1c(C(=O)Nc2ccc(F)cc2F)sc2ncnc(N(C)c3ccccc3)c12")
123.57
>>> measured_result("CCNc1nc(SCc2ccc(Cl)cc2)nc2sc3c(c12)CCN(C)C3")
1.181
>>> measured_result("CCCCN(CC)C(=O)c1sc2ncnc(N3CCN(c4ccc(OC)cc4)CC3)c2c1C")
1.5462
>>> measured_result("O=C(Nc1ncnc2sc3c(c12)CCCCC3)c1ccco1")
"−1.808"
>>> measured_result("Cc1c(C(=O)N2CCCCCC2)sc2ncnc(N3CCN(c4ccccc4)CC3)c12")
"−0.933"
>>> measured_result("Cc1nc(N2CCCCC2)c2c(C)c(C(=O)Nc3cccc(C(F)(F)F)c3)sc2n1")
"−1.481"
